experiment: viability loss with induced miR-34 in A549 – imaging, A549 dox-inducible miR-34, nuclei and caspase counts, primary screen (AID 1347080); settings: A549 miR-34 inducible, Hoechst nuclei count, 48 h; measured here: total cells without miR-34 induction; also: test concentration not given here
OBSERVED_PROPERTY: cell count

{"MOLECULE": "CCOC(=O)NC[C@H](Cc1ccc(OCCc2nc(-c3ccccc3)oc2C)cc1)N/C(C)=C\\C(=O)c1ccc(C(F)(F)F)cc1", "QUANTITATIVE_READOUT": 4910}
{"MOLECULE": "COc1ccc(S(=O)(=O)Nc2cccnc2Nc2ccc(O)cc2)cc1", "QUANTITATIVE_READOUT": 962}
{"MOLECULE": "Cc1ccccc1N=C(N)Nc1ccccc1C", "QUANTITATIVE_READOUT": 9220}
{"MOLECULE": "COc1ccc2cc(CC(=O)O)ccc2c1", "QUANTITATIVE_READOUT": 5840}
{"MOLECULE": "O=C(c1cncc(Br)c1)N1CCC(N2CCCC2)CC1", "QUANTITATIVE_READOUT": 8800}
{"MOLECULE": "c1ncc(CC2CCNCC2)[nH]1", "QUANTITATIVE_READOUT": 9370}
{"MOLECULE": "CCCCCCCCCCCCCCCC(=O)NCCS(=O)(=O)O", "QUANTITATIVE_READOUT": 5950}
{"MOLECULE": "CCCCC[C@H](O)/C=C/[C@H]1[C@H](O)CC(=O)[C@H]1C/C=C\\CCCC(=O)OC(C)C", "QUANTITATIVE_READOUT": 5820}
{"MOLECULE": "CCOC(=O)c1c(CSc2ccccc2)n(C)c2cc(Br)c(O)c(CN(C)C)c12", "QUANTITATIVE_READOUT": 6850}
{"MOLECULE": "O=P(O)(O)O[C@H]1[C@H](O)[C@@H](O)[C@H](OP(=O)(O)O)[C@@H](OP(=O)(O)O)[C@H]1O", "QUANTITATIVE_READOUT": 5330}
{"MOLECULE": "Cc1nc2sccn2c(=O)c1CCN1CCC(=C(c2ccccc2)c2ccc(F)cc2)CC1", "QUANTITATIVE_READOUT": 7370}
{"MOLECULE": "Cc1cc(Nc2ncc(Cl)c(Nc3ccccc3S(=O)(=O)C(C)C)n2)c(OC(C)C)cc1C1CCNCC1", "QUANTITATIVE_READOUT": 3520}
{"MOLECULE": "CC(C)OC(=O)CCC/C=C\\C[C@H]1C(=O)C[C@@H](O)[C@@H]1/C=C/[C@@H](O)COc1cccc(C(F)(F)F)c1", "QUANTITATIVE_READOUT": 6490}
{"MOLECULE": "CCCCCCCCCSCCCCCCCC(=O)O", "QUANTITATIVE_READOUT": 5640}
{"MOLECULE": "O=C(Nc1ccc(C(F)(F)F)cn1)N1CCN(c2ncccc2C(F)(F)F)CC1", "QUANTITATIVE_READOUT": 6540}
{"MOLECULE": "CCCCCCCCCCCCCCCCOC[C@H](COP(=O)([O-])OCC[N+](C)(C)C)OC(=O)CCCCCCCC(=O)O", "QUANTITATIVE_READOUT": 5340}
{"MOLECULE": "CCOC(=O)CCNc1cc(N2CCc3ccccc3CC2)nc(-c2ccccn2)n1", "QUANTITATIVE_READOUT": 5480}
{"MOLECULE": "COc1cc(Nc2ncc3c(n2)-c2ccc(Cl)cc2C(c2c(F)cccc2OC)=NC3)ccc1C(=O)O", "QUANTITATIVE_READOUT": 1510}
{"MOLECULE": "CCCCC(C)(C)[C@H](O)/C=C/[C@H]1C(=O)C[C@H](O)[C@@H]1C/C=C\\CCCC(=O)O", "QUANTITATIVE_READOUT": 5250}
{"MOLECULE": "CCCC/C=C/C=C/C=C\\CCCCCCCC(=O)OC", "QUANTITATIVE_READOUT": 5590}
{"MOLECULE": "COc1ccc(/C=C/C(=O)Nc2c(O)cccc2C(=O)O)cc1OC", "QUANTITATIVE_READOUT": 5870}
{"MOLECULE": "Cn1cnc(-c2cc3nccc(Oc4ccc(NC(=S)NC(=O)Cc5ccccc5)cc4F)c3s2)c1", "QUANTITATIVE_READOUT": 4730}
{"MOLECULE": "O=C(O)CCC/C=C\\C[C@@H]1[C@@H](/C=C/[C@H](O)COc2cccc(C(F)(F)F)c2)[C@H](O)C[C@@H]1O", "QUANTITATIVE_READOUT": 5890}
{"MOLECULE": "O=C(NCCCN1CCCCCC1)C(c1ccccc1)C1CCCCC1 (stereo unspecified)", "QUANTITATIVE_READOUT": 8820}
{"MOLECULE": "Cc1ccc(S(=O)(=O)NCc2ccccc2)cc1", "QUANTITATIVE_READOUT": 9670}
{"MOLECULE": "CCS(=O)(=O)N(C)[C@H]1c2cc(C#N)ccc2OC(C)(C)[C@@H]1O (racemic)", "QUANTITATIVE_READOUT": 10400}

The reported numbers originate from PubChem BioAssay.
